# Target system: Bcl-xL, Q07817
# Sequence (Q07817 1-209): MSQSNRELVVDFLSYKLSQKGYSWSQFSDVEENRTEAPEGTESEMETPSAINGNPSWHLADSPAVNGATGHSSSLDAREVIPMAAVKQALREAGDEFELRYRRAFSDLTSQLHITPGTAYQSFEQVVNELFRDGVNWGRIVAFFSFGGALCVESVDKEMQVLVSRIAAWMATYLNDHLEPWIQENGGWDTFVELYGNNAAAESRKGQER
# Test details: peptide SPOT array, c-Myc-tagged receptor at 1 uM or 100 nM, anti-c-Myc-Cy3
Experimental endpoint: SPOT signal as a fraction of Bim BH3's signal on the same receptor and array

Query block: Requested read-out: SPOT signal as a fraction of Bim BH3's signal on the same receptor and array. Entry: DSLAKFAGRKLKDCGEDLLVEISEVL [PCM1]
Result block: 0.02

Query block: Requested read-out: SPOT signal as a fraction of Bim BH3's signal on the same receptor and array. Entry: VEQFSEASQQMAELLEVLVLRLENYE [HAP1]
Result block: 0.02

Query block: Requested read-out: SPOT signal as a fraction of Bim BH3's signal on the same receptor and array. Entry: AVLCVECGYKYRFFGEDAEIAARELN [MSH3]
Result block: 0.01

Query block: Requested read-out: SPOT signal as a fraction of Bim BH3's signal on the same receptor and array. Entry: SSTMGQVGRQDAIIGDDINRRYDSEF
Result block: 0.02

Query block: Requested read-out: SPOT signal as a fraction of Bim BH3's signal on the same receptor and array. Entry: KTRADSVANKLGSFSKTLGIKLKKNM [OTUD7A]
Result block: 0.87

Query block: Requested read-out: SPOT signal as a fraction of Bim BH3's signal on the same receptor and array. Entry: SSTMGQVGRQLAIILDDINRRYDSEF
Result block: 0.02

Query block: Requested read-out: SPOT signal as a fraction of Bim BH3's signal on the same receptor and array. Entry: QCPIFRLGDIFRETGDNFSDVAIQGG [P2RX7]
Result block: 0.07
